pKi: recorded values
study_target: human melanocortin-1 receptor (human) (UniProt Q01726)
Sequence (Q01726 whole entry): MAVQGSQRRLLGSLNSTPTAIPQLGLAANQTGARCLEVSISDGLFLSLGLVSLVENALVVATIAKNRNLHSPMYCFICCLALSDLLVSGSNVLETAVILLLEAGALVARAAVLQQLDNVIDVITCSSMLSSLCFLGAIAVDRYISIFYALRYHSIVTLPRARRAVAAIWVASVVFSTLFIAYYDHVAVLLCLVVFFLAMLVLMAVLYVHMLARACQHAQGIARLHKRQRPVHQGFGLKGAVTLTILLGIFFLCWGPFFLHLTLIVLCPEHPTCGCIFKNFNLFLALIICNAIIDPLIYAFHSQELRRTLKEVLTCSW
test_method_notes: [I125]-NDP-α-MSH competition, hMC1r HEK-293 membranes
pKi: −log10 of the molar value. Bridge positions count the residues as written; N and C are the ends. Square brackets hold non-standard residues; d marks the D form. Nle = CCCC[C@H](N)C(=O)O; Dab = NCC[C@H](N)C(=O)O; Dap = NC[C@H](N)C(=O)O
assay_metric: pKi

1. Ac-[Nle]EH[dF]R[Dab]A-NH2 (lactam 2-6) [Ac-Nle-cyclo(Glu-His-D-Phe-Arg-Dab)-Ala-NH2]    8.70
2. Ac-[Nle]EH[dF]G[Dab]W-NH2 (lactam 2-6; SMILES CCCC[C@H](NC(C)=O)C(=O)N[C@H]1CCC(=O)NCC[C@@H](C(=O)N[C@@H](Cc2c[nH]c3ccccc23)C(N)=O)NC(=O)CNC(=O)[C@@H](Cc2ccccc2)NC(=O)[C@H](Cc2c[nH]cn2)NC1=O) [Ac-Nle-cyclo(Glu-His-D-Phe-Gly-Dab)-Trp-NH2]    8.05
3. Ac-[Nle]DH[dF]R[Dap]W-NH2 (lactam 2-6; SMILES CCCC[C@H](NC(C)=O)C(=O)N[C@H]1CC(=O)NC[C@@H](C(=O)N[C@@H](Cc2c[nH]c3ccccc23)C(N)=O)NC(=O)[C@H](CCCNC(=N)N)NC(=O)[C@@H](Cc2ccccc2)NC(=O)[C@H](Cc2c[nH]cn2)NC1=O) [Ac-Nle-cyclo(Asp-His-D-Phe-Arg-Dap)-Trp-NH2]    8.70
